Experiment: protein stability index of a GFP-peptide fusion (GPS, HEK-293T) (PSI 1-6); higher = more stable;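 also: 24-mer peptide tiles fused after GFP, lentivirally expressed, FACS-sorted into six equal bins by GFP/DsRed ratio, decoded by Illumina sequencing, PSI is the read-weighted mean bin number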
Conditions: treatment: DMSO; c terminus: a fixed tail appended
Classification field: enter T for protein stability index values not below 3, F for values below it.

Observe how each entry below is paired with its result.
# SEQ, CLASS ASSIGNMENT
data = [
    ("EGSFNGSEKETMQFLNDRLASYLE [KRT33B]", "T"),
    ("GGACPAFLPSLRPPPLTSPSHGSL [NCF4]", "T"),
    ("NAGISFSVKKQGETVADVRTLPNA [MLH1]", "T"),
    ("SVLQSVWMEVLVLGVAQRSLPLQD [ESRRA]", "T"),
    ("NCSDFLESKGCFANTTPSGKSVSS [SPATS1]", "T"),
    ("WLQNTHVYSWPKNKKNILLRLLRE [TRAF3IP2]", "F"),
    ("EAQLSLIRDIRRRGKNKMAAQNCR [NFE2L1]", "T"),
    ("PWSLFDVLVEKYGWPHEDAAQFTD [SRPK2]", "F"),
    ("LELDDNLDTERPVQKRARSGPQPR [TRIB3]", "T"),
    ("RELGIRQRDEQLRALQERLGQQQR [FBF1]", "T"),
]

Prompt: In plain terms: is recorded protein stability index at least 3 for PSVRSSKDGKLLAATLLLALLSCC [TNFSF13B] ?
Response: F

Prompt: Reported protein stability index at or above 3? IRLGIEGYPTYKEKVKKRPGGRPE [BTBD10]
Response: T

Prompt: Please check the record EVAAKNQSLEGDTTKGTSEMSEKR [MLH1] and state if its protein stability index is at or above 3.
Response: T

Prompt: Exam item: decide whether the reported protein stability index for SEGLHLAGTAGHPPSGSQPLTSTQ [FBF1] is at least 3.
Response: T

Prompt: Hi team, for YFATFYSCTPRMNRRMVGPDVIPL [FAM189A2] , is the recorded protein stability index at or above 3?
Response: F

Prompt: Entry EELAKKRFKDKSSEEAVREVHRLI [TPPP] : is its protein stability index no less than 3?
Response: T

Prompt: Does EAAGGDHETESTSDKETDIDDRYG [CDS1] have a reported protein stability index of at least 3?
Response: T

Prompt: Given the entry MELGPEPPHRRRLLFACSPPPASQ [CDC25A] , answer whether its protein stability index meets or surpasses 3.
Response: T

Prompt: Has DIVEFVCKSGYHPTKSHSFRAMCQ [CFHR2] a recorded protein stability index greater than or equal to 3?
Response: F

Prompt: Determine whether measured protein stability index meets or exceeds 3 for SLGGCSQDFLLFSPEVESLPVASS [NFE2L1]
Response: F

Prompt: Hello, I need to know if SIQKLSNESRYMIYEFWENSSVWN [NECAB1] has measured protein stability index not below 3. Thanks!
Response: F

====

Experiment: protein stability index of a GFP-peptide fusion (GPS, HEK-293T) (PSI 1-6); higher = more stable
Settings: treatment: MLN4924 1 uM, 8 h; c terminus: a fixed tail appended
Recorded measurements of protein stability index, one per entry

Study these solved cases before continuing.
# SEQ, VALUE KIND, MEASURED
rows = [
    ("VKMFYSFQDKRNLYLIMEFLPGGD [STK38L]", "protein stability index", 3.29),
    ("EAPALPAPAAPMVSKGAESSRSSE [BRD3]", "protein stability index", 5.73),
    ("YARQHCPLKNPTFLDYVRPRSWTC [SOAT1]", "protein stability index", 2.14),
]

Prompt: What value of protein stability index has been reported for the following sequence? ILLKVKTEIEEELKSLDKEISEAF [BCL2L13]
Response: 3.19

Prompt: May I ask what protein stability index has been recorded for LARGIHVAGILSLLLGTAYSFYLF [POMT2] ?
Response: 2.65

Prompt: Requested field: protein stability index. Item: GENSDGCYEHFAELDIPQSVQQNG [CLPTM1]
Response: 5.01

Prompt: For the sequence RGMDLSWESRTGDQYSYSSLVMGS [LCOR] , what protein stability index is on record?
Response: 2.92

Prompt: Requested field: protein stability index. Item: SHLQTNYSKTFQRSNVDFLETPEL [NECAB1]
Response: 3.62

Prompt: // lookup protein stability index for FLHPDLGVGGAERLVLDAALALQA [ALG2]
Response: 2.27

Prompt: What does the data say about its protein stability index? Entry: NLANCERLIEVEDMMVMGRKPDPM [SMTNL2]
Response: 3.48

Prompt: Find the recorded protein stability index belonging to WTLQRRLTRLRTASGHEPGGSAVC [PLEKHN1] and report it.
Response: 3.06

Prompt: For the sequence LRVISDEGGWWKAISLSTGRESYI [SLA] , what protein stability index is on record?
Response: 1.88

Prompt: Quick check: protein stability index of PSVRSSKDGKLLAATLLLALLSCC [TNFSF13B] ?
Response: 2.81

====

As shown below, each of these sequences has a reported protein stability index value.
Assay: protein stability index of a GFP-peptide fusion (GPS, HEK-293T) (PSI 1-6); higher = more stable
Details: treatment: DMSO; c terminus: a fixed tail appended
Would you mind answering with just the numeric figure?

Record excerpt, results attached:
# SEQ, MEASURED
records = [
    ("CLTLATAVVQLYLALPPGAEHWTK [WAS]", 2.85),
    ("SPAEDFVLVAETTMARIRRVYVSG [APMAP]", 2.22),
    ("IKHVLQTFGPIPEFSRATAEKVNQ [CRYL1]", 3.39),
    ("DPDEEHLKKSSQVPRTEAPAPASS [PDLIM7]", 5.39),
    ("GTTYLPGIVGLNNIKANDYANAVL [USP39]", 2.47),
    ("QHLKSKALRERWLLEGTPSSASEG [PALM]", 4.25),
    ("HKLQEEKAFREEMKIFREKIEDFR [CCDC70]", 3.38),
    ("REDSKEAEKSGEATDGARPQALPE [CHGA]", 5.64),
]

Prompt: For the sequence "ESGLGHFSLRVHTGCHKKLGPEAR" , what protein stability index is on record?
Response: 3.24

Prompt: Return reported protein stability index; argument: LSKSRTDYQPTQAGRLMRPSVKYL [RNF180]
Response: 3.19

Prompt: Consider the sequence shown here: KAGIEQEGYWLPGDEISIKKKNTN [ZMYND11] What is its recorded protein stability index?
Response: 4.5

Prompt: Data request, read-out protein stability index, for FWDFAQGPLLDSLYWTKWYNNQSL [PKD2L1]
Response: 2.3

Prompt: Which value of protein stability index has been reported for EDEGVDLSEGSSNEDEDLGPCEGP [SPANXN3] in the records?
Response: 5.39

Prompt: Find the recorded protein stability index belonging to NQLQYMQNVVVKTLWKHQFAWPFY [BRD3] and report it.
Response: 3.03

Prompt: What value of protein stability index has been recorded for this entry: KAVMKTSVLLSWEIPENYNSAMPF [PTPRD]
Response: 2.26

Prompt: Fill blank: measured protein stability index of the sequence VSGGSRSLNMSRRDSESTRHDSET [PHTF1] is ____.
Response: 5.25

Prompt: Entry RYVYRFVCDLQSLLGYTPEELHAM [ETS1] has what protein stability index?
Response: 2.69

Prompt: Consider the sequence FLVTMANIGINGNHSLETCETTLF [PTGFR] and give its measured protein stability index.
Response: 2.88

Prompt: Requested read-out: protein stability index. Entry: ACGLGGGYGGGFSSSSSFGSGFGG [KRT16]
Response: 2.17

Prompt: Query: protein stability index; subject: GLLNDTSAPHLENSGHTIFNDPFF [KCNA4]
Response: 4.17

Prompt: Field request: protein stability index | item: AALGSRGSCSTEVEKETQEKMTIL [ATP6V1G1]
Response: 2.52

Prompt: Which protein stability index reading was recorded for the sequence KESNANPIFMRKDTKMSFQWRIRN [DPCD] ?
Response: 2.83

Prompt: Param item = GVLDALHVLEGLFRTDPEAKVKLV [ZSWIM9] ; retrieve measured protein stability index.
Response: 2.28

Prompt: Fill in the blank: the reported protein stability index of PDTAPPSERPLEDLRLRLDHLGWV [RTN2] is ____.
Response: 3.39

Prompt: I'd like to know its protein stability index. The sequence in question is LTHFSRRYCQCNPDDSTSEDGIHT [PSD2]
Response: 3.6

Prompt: Fill in: protein stability index of RKIQFNFPYFRSDRDKRDFVSAGA [CLCN6] is ___
Response: 2.67

Prompt: Entry QALLIRERILGPSHPDTSYYIRYR [FEM1A] has what protein stability index?
Response: 2.31
